target.desc: TNF-α:TNFRp60 interaction (Homo sapiens)
Sequence (P01375 77-233 limits assumed, species assumed): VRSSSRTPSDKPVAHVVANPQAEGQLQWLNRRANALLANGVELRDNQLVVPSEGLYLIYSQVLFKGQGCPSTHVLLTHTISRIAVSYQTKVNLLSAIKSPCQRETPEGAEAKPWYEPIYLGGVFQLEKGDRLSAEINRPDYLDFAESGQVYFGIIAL
assay.overview: Binding assay (ELISA): compound inhibits binding of biotin-TNF-α to immobilized TNFRp60 (Example 8)
study.conditions: average value; read-out: IC50 for TNF-α:TNFRp60 binding interruption
pIC50: −log10 of the molar value.
recorded.metric: pIC50

(Q) For TNF-α:TNFRp60 interaction (Homo sapiens), give the measured pIC50 of the entry O=C(Nc1cccc(S(=O)(=O)Nc2cc3ccccc3cc2C(=O)O)c1)Nc1cccc(S(=O)(=O)Nc2cc3ccccc3cc2C(=O)O)c1 [BIO-002108-00, reference compound]
(A) < 3.90

Source listed as patent US20070249682A1.
